- Tested on: Bio-PepK-StA
- Type: binding
- setup-conditions: C-terminal truncation of Fluo-PepE, Fig. 3A
assay-endpoint: affinity of the non-covalent interaction with full-length PepK

{"substance": "Fluo-Aoa-EIAALEREIAALERE-NH2 [PepE(-6C)]", "value-measured": "complete loss of binding"}
{"substance": "Fluo-Aoa-EIAALEREIAALER-NH2 [PepE(-7C)]", "value-measured": "complete loss of binding"}
